TEST TARGET: IDH2 R140Q (Homo sapiens (Human), UniProt P48735, R140Q)
Sequence (P48735 40-452 R140Q): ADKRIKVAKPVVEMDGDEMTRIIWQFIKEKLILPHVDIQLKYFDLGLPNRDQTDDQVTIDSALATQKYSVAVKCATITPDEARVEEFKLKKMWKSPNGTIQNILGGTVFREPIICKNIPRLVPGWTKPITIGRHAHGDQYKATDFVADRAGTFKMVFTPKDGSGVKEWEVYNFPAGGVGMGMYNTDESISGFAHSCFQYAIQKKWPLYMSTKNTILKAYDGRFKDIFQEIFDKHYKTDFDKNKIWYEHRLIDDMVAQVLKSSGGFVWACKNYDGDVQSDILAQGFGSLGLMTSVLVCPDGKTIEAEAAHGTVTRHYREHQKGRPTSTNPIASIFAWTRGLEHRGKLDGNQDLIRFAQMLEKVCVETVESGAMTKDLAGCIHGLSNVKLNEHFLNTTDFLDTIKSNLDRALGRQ
METHOD NOTES: In vitro assay for IDH2m R140Q inhibitors, cofactor depletion assay
Type: biochemical
PARTICULARS: IDH2 R140Q enzyme
pIC50: −log10 of the molar value.
ASSAY METRIC: pIC50

CC(O)CNc1nc(NCC(C)O)nc(-c2cccc(C(F)(F)F)n2)n1 (stereo not shown) :: < 6.00
FC1(F)CC(CNc2nc(Nc3ccnc(C(F)(F)F)c3)nc(-c3cccc(C(F)(F)F)n3)n2)C1 :: > 7.30

Memo: N#CC1(c2cc(Nc3nc(N[C@H]4CCC(F)(F)C4)nc(-c4nccc(C(F)(F)F)n4)n3)ccn2)CC1 , reported pIC50: > 7.30

Memo: CC(Nc1nc(N[C@H](C)C2CC2)nc(-c2cccc(C(F)(F)F)n2)n1)c1ccccc1 (single isomer, unassigned) , reported pIC50: > 7.30

Memo: C[C@@H](Nc1nc(N[C@H](C)C2CC2)nc(-c2cccc(C(F)F)n2)n1)C1CC1 , reported pIC50: > 7.30

From: patent US10028961B2
